# TEST TARGET: T1, PKC-ζ (purified isoform) (Homo sapiens (Human), UniProt Q05513 1-592)
# T1 construct: also called PKC-zeta; PKCzeta
# T1 sequence: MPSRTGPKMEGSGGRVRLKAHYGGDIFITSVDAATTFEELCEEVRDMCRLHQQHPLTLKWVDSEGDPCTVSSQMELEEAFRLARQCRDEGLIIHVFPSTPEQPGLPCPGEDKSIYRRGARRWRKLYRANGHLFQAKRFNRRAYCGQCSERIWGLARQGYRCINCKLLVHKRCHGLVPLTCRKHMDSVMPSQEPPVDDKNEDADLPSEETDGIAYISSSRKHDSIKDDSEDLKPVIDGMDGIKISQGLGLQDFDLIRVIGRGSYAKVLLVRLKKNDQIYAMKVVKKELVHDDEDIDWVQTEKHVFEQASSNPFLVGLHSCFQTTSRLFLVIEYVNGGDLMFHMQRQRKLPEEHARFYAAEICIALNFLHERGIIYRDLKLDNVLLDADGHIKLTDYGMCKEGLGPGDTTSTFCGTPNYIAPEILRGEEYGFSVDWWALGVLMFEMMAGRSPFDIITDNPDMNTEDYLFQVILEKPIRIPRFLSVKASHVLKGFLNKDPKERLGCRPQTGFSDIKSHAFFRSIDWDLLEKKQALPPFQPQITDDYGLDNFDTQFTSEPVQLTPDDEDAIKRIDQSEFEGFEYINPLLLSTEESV
# TEST DESCRIPTION: competitive ELISA on purified PKC-ζ vs anti-PKC-ζ Ab; PRE 50 µM
READOUT NAME: binding capacity (%)

A. Ac-AKGIQEVKGGDAQNLIGISI-NH2 (Synthetic peptide; also called peptide PRE 3) [PRE 3]
B. Ac-KDANQLIGISI-NH2 (Synthetic peptide; also called peptide PRE 6) [PRE 6]
Q: I'm curious, which of these has a smaller binding capacity (%) number: A or B ? // caller expects the label of the chosen entry
Ans: B
(B: 0%, A: 14%)

// data source = patent US20100041597A1
